system: K4 kissing-loop RNA reporter; test: apparent KD of K4 kissing-loop reporter; higher = weaker reporter binding; conditions: Eterna round: R107; input ligand: none;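 note: bound reporter read as fluorescence of individual clusters on recovered sequencing chips by microscopy, with normalized cluster intensities fitted with a binding model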
Answer each item with its documented apparent KD of K4 kissing-loop reporter.
Give bare numbers, in µM.

Examples from the recorded data:
Using the record for CCCUCACGAGUGAUGUUCGUAGGGUACAGUCAGGAUAUCAUGCGGUUGAGAAGGGACAGGAAGGGCGGCGGCGGGUUGCUCACCG [Atera] , report its apparent KD of K4 kissing-loop reporter.
0.192

Please give the measured apparent KD of K4 kissing-loop reporter for this sequence: ACGUCAUAUGUAAUGGUGGUUUCGAUCGAUACCAGUAGCGAGAGUUACCCUUGGCAGCGACAUGAGUGAUGUUCAUGUAUGAAGA [KL-XTheo-A2 #analogue]
0.107

What does the data say about its apparent KD of K4 kissing-loop reporter? Entry: AGUGUGCAAAAGCACACUCAGUACAAGGACAAGGAUAUCUACUAAUAGAGAAGGUGUCCUUUCCUUAGUGAUGUUAAGGAACUGA [Omei KL FMN A SS D v3]
0.617

What value of apparent KD of K4 kissing-loop reporter has been reported for the following sequence? CCAGCGGGCACGGCCGCCACUCUCUCGAGUGAUGUUUGCGGAGUCAGGCCGGCUCAGUACGUCACGAGGACCGGGUGCAAUUUAC [theeternabot_exclusion_KL_Trp_B_40]
0.829

Query: apparent KD of K4 kissing-loop reporter; subject: GCAGUGAUGUUGCGGAUGUACAGUGGCGUGCGAGGACCGGUACGGCCGCCACUCGUACAGAGCAAGCUAAUACAUCGAUAGGUGA [whbob_SS_Tryp_A_m4]
0.207

Given GAUUUAGAGGCGGCCGCCACUAGUGAUGUUAGUGAUGUUUGAUAGGGAAUAUAUCUGCGAGUAGAUAGGACCGGGCCAGAUGGAG [eccvbmullin] , state its recorded apparent KD of K4 kissing-loop reporter.
0.15

Fill in apparent KD of K4 kissing-loop reporter for each of the 3 sequences listed.
1. GAUUACAACAGAGUGAUGUUCUGACUUUCUCGAGGACCGGUACGGCCGCCACUCGUUAAACAAAGUGGUUUGCCAAGGCCAACUU
2. UGCUGGUCAUAGCGUAGUGUGAGCCGCUCACGAGGACCGGUACGGCCGCCACUCGUUACAAAGCAGUGAUGUUGCAAUAGGCUCU [theeternabot_sameState_KL_Trp_A_24]
3. GCCGUAGAUGGAAGGAGCGUGGUCUAGAAGCACAAGUGAUGUUUGUGGUAACCUUCUGACCCACAGGUAGGUCGCCAUCUACGGC

1: 0.157; 2: 0.339; 3: 0.0857
